Tested on: Trichophyton benhamiae
Experiment: Antifungal activity against Trichophyton mentagrophytes
Assay type: functional, trychophyton mentagrophytes
Catalogue of Inhibition readings, one per entry.
Result Type: Inhibition

| Compound | Reported Result |
| --- | --- |
| Clc1ccc(C2COC(Cn3ccnc3)(c3ccc(Br)cc3)O2)c(Cl)c1 (stereo not given) | 10 µg/mL |
| Clc1ccc(C2COC(Cn3ccnc3)(c3ccc(Cl)cc3Cl)O2)c(Cl)c1 (stereo not given) | <1 µg/mL |
| Fc1ccc(C2COC(Cn3ccnc3)(c3ccc(Cl)cc3)O2)cc1 (stereo not given) | <1 µg/mL |
| Cc1ccc(CC2COC(Cn3ccnc3)(c3ccc(Cl)cc3Cl)O2)cc1 (stereo not given) | <1 µg/mL |
| Clc1ccc(COC(Cn2ccnc2)c2ccc(Cl)cc2Cl)c(Cl)c1 (stereo not given) | <1 µg/mL |

* * *

Tested on: Mucor
Test: Antifungal activity against Mucor species
Type: functional

| Molecule | Inhibition |
| --- | --- |
| Clc1ccc(C2(Cn3ccnc3)OCC(c3ccccc3Cl)O2)c(Cl)c1 (configuration not stated) | 100 µg/mL |
| Fc1ccc(C2COC(Cn3ccnc3)(c3ccc(Br)cc3)O2)cc1 (configuration not stated) | <1 µg/mL |
| Clc1ccc(COC(Cn2ccnc2)c2ccc(Cl)cc2Cl)c(Cl)c1 (configuration not stated) | >100 µg/mL |
| Clc1ccc(C2(Cn3ccnc3)OCC(Cc3ccccc3)O2)c(Cl)c1 (configuration not stated) | 10 µg/mL |
| Clc1ccc(C2(Cn3ccnc3)OCC(c3ccc(Br)cc3)O2)c(Cl)c1 (configuration not stated) | 10 µg/mL |
| Clc1cccc(C2(Cn3ccnc3)OCC(c3ccc(Cl)cc3Cl)O2)c1 (configuration not stated) | 100 µg/mL |
| Clc1ccc(C2(Cn3ccnc3)OCC(c3ccccc3)O2)c(Cl)c1 (configuration not stated) | 100 µg/mL |
| Brc1ccc(C2(Cn3ccnc3)OCC(c3ccccc3)O2)cc1 (configuration not stated) | 100 µg/mL |
| Clc1ccc(C2(Cn3ccnc3)OCC(Cc3ccc(-c4ccccc4)cc3)O2)c(Cl)c1 (configuration not stated) | >100 µg/mL |
| Brc1ccc(C2COC(Cn3ccnc3)(c3ccccc3)O2)cc1 (configuration not stated) | 100 µg/mL |
| Clc1ccc(C2(Cn3ccnc3)OCC(c3ccc(Cl)cc3Cl)O2)cc1 (configuration not stated) | 100 µg/mL |
| Cc1ccc(C2(Cn3ccnc3)OCC(c3ccccc3Cl)O2)cc1 (configuration not stated) | 100 µg/mL |
| Clc1ccc(C2COC(Cn3ccnc3)(c3ccccc3)O2)cc1 (configuration not stated) | 100 µg/mL |
| Clc1ccc(CC2COC(Cn3ccnc3)(c3ccc(Cl)cc3Cl)O2)cc1 (configuration not stated) | 10 µg/mL |
| Cc1ccc(C2COC(Cn3ccnc3)(c3ccc(Cl)cc3)O2)cc1 (configuration not stated) | 100 µg/mL |
| Cc1ccc(C2COC(Cn3ccnc3)(c3ccc(Br)cc3)O2)cc1 (configuration not stated) | 10 µg/mL |
| Clc1ccc(C2COC(Cn3ccnc3)(c3ccccc3Cl)O2)c(Cl)c1 (configuration not stated) | >100 µg/mL |
| Clc1ccc(C2(Cn3ccnc3)OCC(c3ccccc3)O2)cc1 (configuration not stated) | 100 µg/mL |
| Clc1ccc(CCC2COC(Cn3ccnc3)(c3ccc(Cl)cc3Cl)O2)cc1 (configuration not stated) | 10 µg/mL |
| COc1ccc(C2(Cn3ccnc3)OCC(c3ccc(Cl)cc3)O2)cc1 (configuration not stated) | 100 µg/mL |
| Cc1ccc(CC2COC(Cn3ccnc3)(c3ccc(Cl)cc3Cl)O2)cc1 (configuration not stated) | 10 µg/mL |
| Clc1ccc(C2COC(Cn3ccnc3)(c3ccccc3Cl)O2)cc1 (configuration not stated) | 100 µg/mL |
